- assay remarks: physchem
- condition label: pH 7.4, aqueous buffer, kinetic from dmso stock
reported endpoint: solubility kinetic

Entry [2H]C([2H])(c1cc(Cl)ccc1N)N1CCN(C(=O)CNC(=O)CC2CCC(F)(F)CC2)CC1 needs its solubility kinetic filled in; supply it.
> 100 µM

Note down solubility kinetic recorded for O=C(CC12CC3CC(CC(C3)C1)C2)NCC(=O)N1CCN(Cc2ccccc2OCc2ccc(-c3ncco3)cc2)CC1
5 µM

Specify reported solubility kinetic for the molecule shown: Nc1ccc(Cl)cc1CN1CCN(C(=O)CNC(=O)CC2CCC(F)(F)CC2)CC1
> 100 µM

Provide measured solubility kinetic value, entry: [2H]C([2H])(c1cc(Cl)ccc1N)N1CCN(C(=O)CNC(=O)C2CC23CCC(F)(F)CC3)CC1 (stereo not shown)
> 100 µM
